Quantity: pIC50
Lab note — pIC50 values are minus log10 of concentrations in M.

Identify the measured pIC50 of O=C(/C=C/c1ccc(O)c(O)c1)O[C@@H]1C[C@](O)(C(=O)O)C[C@@H](O)[C@H]1O for xanthine oxidase from bovine milk (Bos taurus).
3.53

Requested read-out pIC50, target or system xanthine oxidase from bovine milk (Bos taurus), entry O=C/C=C/c1ccccc1
3.48

Can you look up pIC50 on xanthine oxidase from bovine milk (Bos taurus) for O=c1ccc2ccccc2o1 ?
3.19
